All figures here come from the FLAb antibody collection (doi:10.7554/elife.23156).

B1: scFv; the commonest letter at each place (parent)
chain 1: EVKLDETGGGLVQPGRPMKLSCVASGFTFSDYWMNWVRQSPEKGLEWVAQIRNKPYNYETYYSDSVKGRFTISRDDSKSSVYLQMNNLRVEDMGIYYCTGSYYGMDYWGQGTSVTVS
chain 2: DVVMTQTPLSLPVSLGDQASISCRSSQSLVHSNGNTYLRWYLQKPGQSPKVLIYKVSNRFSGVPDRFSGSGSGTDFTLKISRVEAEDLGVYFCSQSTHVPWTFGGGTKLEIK

- Variants of: B1
- ASSAY REMARKS: Kd (Tite-Seq)
- ASSAY CONDITIONS: with fluorescein; format: scFv 4-4-20, heavy + light
pKd: −log10 of the molar value.
OUTCOME MEASURE: pKd

Examples with their reported pKd follow.
VARIANT CODE: chain 1 Y102F G104K
RESULT: ≤ 5.00
//
VARIANT CODE: chain 1 Y103D G109D
RESULT: ≤ 5.00
//
VARIANT CODE: chain 1 S101G M105A
RESULT: ≤ 5.00
//
VARIANT CODE: chain 1 W33R M34I
RESULT: ≤ 5.00
//
VARIANT CODE: chain 1 Y103W W108S
RESULT: ≤ 5.00

Fill blank: measured pKd of the variant chain 1 Y102E G104N is ____. ≤ 5.00

Another variant to check: chain 1 D31R W36N ≤ 5.00

Follow-up entry: chain 1 S30Q W33N ≤ 5.00

Another variant to look at: chain 1 D31S M34I 8.40

Please answer likewise for chain 1 M105P W108E G109W ≤ 5.00
